# Assayed system: Vasopressin V1 Receptor Subtype in Human Platelet Membranes (Homo sapiens, UniProt P37288)
# Construct: tissue Hudson Valley Blood Services, Westchester Medical Center, Valhalla, N.Y; host or cells: human platelet membranes from frozen platelet rich plasma
# Sequence (P37288 whole entry): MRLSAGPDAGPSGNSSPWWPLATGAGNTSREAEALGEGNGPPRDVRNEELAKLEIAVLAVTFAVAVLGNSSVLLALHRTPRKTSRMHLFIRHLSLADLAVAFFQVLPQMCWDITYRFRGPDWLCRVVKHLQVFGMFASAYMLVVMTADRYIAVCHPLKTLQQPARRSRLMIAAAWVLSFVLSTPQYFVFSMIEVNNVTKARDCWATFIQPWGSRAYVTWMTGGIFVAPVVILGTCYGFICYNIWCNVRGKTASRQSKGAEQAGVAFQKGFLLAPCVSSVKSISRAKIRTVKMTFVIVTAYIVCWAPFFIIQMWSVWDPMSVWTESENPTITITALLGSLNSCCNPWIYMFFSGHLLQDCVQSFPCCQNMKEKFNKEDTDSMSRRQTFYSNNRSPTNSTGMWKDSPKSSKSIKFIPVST
# Test method notes: Binding to V1 Receptor Subtype in Human Platelet membranes
Property name: IC50 (µM)

Below are worked cases with known answers.
{"columns": ["Structure notation", "Result units", "IC50"],
 "data": [
  ["Cc1ccc(F)cc1C(=O)Nc1ccc(C(=O)N2CCC=Cc3sccc32)c(Cl)c1", "µM", 1.3],
  ["O=C(Nc1ccc(C(=O)N2CCCCc3sccc32)c(Cl)c1)c1ccc(F)cc1Cl", "µM", 0.18]
]}

P = O=C(Nc1ccc(C(=O)N2CCCCc3sccc32)c(Cl)c1)c1ccc(Cl)cc1Cl
Q = Cc1ccc(F)cc1C(=O)Nc1ccc(C(=O)N2CCCCc3sccc32)c(Cl)c1
R = O=C(Nc1ccc(C(=O)N2CCCCc3sc(Cl)cc32)cc1)c1c(Cl)cccc1Cl
Which order do these items take when sorted by rising IC50? List them. # list labels per requested ordering
Q, R, P
(Q: 0.11 µM, R: 0.19 µM, P: 0.68 µM)

---

# Assayed system: Rat Kidney Medullary V2 Receptors (vasopressin V2) (Rattus norvegicus, UniProt Q00788)
# Construct: Medullary tissues from rat kidneys are dissected out; from tissue; host or cells: rat kidney medulla membranes
# Sequence (Q00788 whole entry): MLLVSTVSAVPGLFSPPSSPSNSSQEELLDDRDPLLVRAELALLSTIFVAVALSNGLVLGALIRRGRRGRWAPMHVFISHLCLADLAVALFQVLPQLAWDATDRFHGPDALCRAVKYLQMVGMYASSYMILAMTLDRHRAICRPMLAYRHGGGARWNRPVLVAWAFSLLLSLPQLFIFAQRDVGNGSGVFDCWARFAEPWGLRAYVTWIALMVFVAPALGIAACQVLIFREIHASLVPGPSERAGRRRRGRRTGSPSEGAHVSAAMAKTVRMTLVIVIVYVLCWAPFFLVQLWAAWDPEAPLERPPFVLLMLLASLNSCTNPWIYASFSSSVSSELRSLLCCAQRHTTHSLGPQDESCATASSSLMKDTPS
# Test method notes: Binding Assay to Rat Kidney Medullary V2 Receptors
# Experimental context: rat kidney medullary V2, [3H]Arg8-vasopressin
Property name: IC50 (µM)

Below are worked cases with known answers.
{"columns": ["Compound", "Property name", "Result"],
 "data": [
  ["Cc1ccc(F)cc1C(=O)Nc1ccc(C(=O)N2CCCCc3sccc32)cn1", "IC50", 0.0061],
  ["Cc1ccccc1C(=O)Nc1ccc(C(=O)N2CCCC(=O)c3sccc32)cc1", "IC50", 0.25],
  ["Cc1ccc(C(=O)Nc2ccc(C(=O)N3CCCCc4sccc43)cc2)c(C)c1", "IC50", 0.06]
]}

P = O=C(Nc1ccc(C(=O)N2CCCCc3sc(Cl)cc32)cc1)c1ccc(Cl)cc1Cl
Q = O=C(Nc1ccc(C(=O)N2CCCCc3sccc32)cc1)c1ccc2[nH]ccc2c1
R = O=C(Nc1ccc(C(=O)N2CCCCc3sccc32)cc1)c1coc2c1C(=O)CCC2
S = Cc1ccsc1C(=O)Nc1ccc(C(=O)N2CCCCc3sccc32)cc1
T = O=C(Nc1ccc(C(=O)N2CCCCc3sccc32)cc1)c1cc(Cl)ccc1Cl
Which order do these items take when sorted by rising IC50? List them. # list labels per requested ordering
P, T, S, Q, R

a = O=C(Cc1ccccc1)Nc1ccc(C(=O)N2CCCCc3sccc32)cc1
b = Cc1ccccc1CC(=O)Nc1ccc(C(=O)N2CCCCc3sccc32)cc1
c = Cc1ccc(C)c(C(=O)Nc2ccc(C(=O)N3CCCCc4sccc43)cc2)c1
Sort these compounds on IC50 so the largest reading comes first. # list labels per requested ordering
c, a, b

1 = Cc1ccc(F)cc1C(=O)Nc1ccc(C(=O)N2CCC=Cc3sccc32)c(Cl)c1
2 = Cc1cccc(C(=O)Nc2ccc(C(=O)N3CCCCc4sccc43)cc2)c1C
3 = O=C(Nc1ccc(C(=O)N2CCCCc3sccc32)cn1)c1ccccc1-c1ccccc1
4 = O=C(Nc1ccc(C(=O)N2CCCCc3sccc32)cc1)c1ccco1
5 = Cc1c(F)cccc1C(=O)Nc1ccc(C(=O)N2CCCCc3sc(Cl)cc32)cc1
Sort these compounds on IC50 so the largest reading comes first. # list labels per requested ordering
4, 2, 1, 5, 3
(4: 1.8 µM, 2: 0.052 µM, 1: 0.03 µM, 5: 0.01 µM, 3: 0.0061 µM)

I = O=C(Nc1ccc(C(=O)N2CCCCc3sccc32)cc1)C1CC=CCC1 (stereo not drawn)
II = Cc1ccccc1C(=O)Nc1ccc(C(=O)N2CCCCc3sccc32)cc1
Hi team, can someone confirm which has the larger IC50: I or II ? Thanks. Bench note: the answer is the label of the chosen record.
I
(I: 0.055 µM, II: 0.023 µM)
